Target: Vg9/Vd2 TCR on SKW3_4 cells (UniProt Q99603)
Sequence (Q99603 21-122, chain 1 of 2): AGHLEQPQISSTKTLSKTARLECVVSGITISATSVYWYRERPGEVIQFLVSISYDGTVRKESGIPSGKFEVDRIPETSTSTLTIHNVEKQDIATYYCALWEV
Sequence (A0JD36 20-115, chain 2 of 2, further chain): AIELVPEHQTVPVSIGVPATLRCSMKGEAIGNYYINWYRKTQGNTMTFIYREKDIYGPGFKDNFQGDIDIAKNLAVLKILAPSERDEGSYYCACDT
Experiment: flow cytometry DRC binding 37 C, SKW3_4 cells expressing Vg9/Vd2
Experimental Readout: Max. Activity (fold over background)

What the record says about VG9B379 (antibody, human IgG1, lambda, V domains shown) VH: EVQLVQSGPEVKKPGASVKVSCKASGYTFTGDYIHWVRQVPGQGLEWMGWINPNSGGTNYAQKFQGRVTMTRDTSISTAFMELSRLRSDDTAVYYCAREGGVAPAAPDAFDIWGQGTMVTVSS VL: SSELTQDPAVSVALGQTVRITCQGDSLRSYYARWYQQKPGQAPVVVIYGKNNRPSGIPDRFSGSSSGNTASLTITGAQAEDEADYYCNSRDSSGNHRVFGGGTKLTVLG : Max. Activity (fold over background) is 160

All values here come from patent US20220125947A1.
